target-or-test-system: T1, LTα1β2 on the surface of PMA-treated II-23 cells (UniProt P01374 35-205, limits assumed)
T1 construct: whole, on cells; also called surface LT
T1 sequence 1: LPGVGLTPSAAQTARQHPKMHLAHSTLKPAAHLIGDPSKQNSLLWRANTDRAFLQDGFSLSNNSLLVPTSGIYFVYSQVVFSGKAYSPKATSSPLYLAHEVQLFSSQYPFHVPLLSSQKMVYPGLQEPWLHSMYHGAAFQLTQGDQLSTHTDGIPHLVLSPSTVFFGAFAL
T1 sequence 2: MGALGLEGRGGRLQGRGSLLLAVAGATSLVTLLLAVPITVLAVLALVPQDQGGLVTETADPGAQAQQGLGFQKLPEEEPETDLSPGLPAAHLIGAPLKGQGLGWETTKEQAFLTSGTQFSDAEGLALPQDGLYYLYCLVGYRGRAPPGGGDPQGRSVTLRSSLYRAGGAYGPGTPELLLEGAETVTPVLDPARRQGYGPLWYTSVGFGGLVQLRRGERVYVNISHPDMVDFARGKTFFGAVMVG
procedure-text: FACS, inhibition of biotin-LTβR-Ig (1 ug/ml) binding to PMA-treated II-23 cells
Method: II-23 cells were incubated with 50 ng/ml PMA for 4 hours at 37° C. 5% CO2. The cells were washed and 500,000 cells were added to each well of a 96-well plate. The antibody was diluted to the appropriate concentrations and added to the II-23 cells. […] The cells were washed once and read by FACS analysis. The mean fluorescence intensity is plotted versus antibody concentrations, and an IC50 is determined from a 4-parameter curve fit of the data.
Catalogue of Maximum % Inhibition values
Please give a number only; it is taken to be in %.

Input: Look up Maximum % Inhibition: A1D5 (antibody, V domains shown, Murine monoclonal antibody, kappa light chain; also called mAb A1D5) VH: EVQLQQSGPELVKPGASVKISCKASGYSFTGYFMNWMRQSHGKSLEWIGRINPYNGDSFYNQKFKDKATLTVDKSSTTAHMELLSLTSEDSAVYYCGRGYDAMDYWGQGTSVTVSS VL: DIQMTQTTSSLSASLGDRVTISCRASQDISNFLTWYQQKPDGTVKLLIYYTSKLHSGVPSRFSGSGSGTDYSLTISNLEPGDIATYYCQQVSKFPWTFGGGAKLEIK
Output: 92

New cases:
Input: Look up Maximum % Inhibition: LT101 (P1G4.4) / LT103 (P1G9.1) (antibody, V domains shown, Murine monoclonal antibody, kappa light chain; also called LT101/LT103) VH: QVQLQQSGPELVKPGASVQISCKASGYVFSSSWMNWVKQRPGRGLEWIGRIYPGDGDTDYTGKFKGKATLTADKSSNTAYMQLSSLTSVDSAVYFCASGYFDFWGQGTPLTVSS VL: DITMTQSPSSMYASLGERVTITCKASQDMNNYLRWFQQKPGKSPQTLIFRANRLVDGVPSRFSGSGSGQDYSLTISSLEFEDMGIYYCLQHDKFPPTFGGGTKLEIK
Output: 77

Input: Try A0D9 (antibody, V domains shown, Murine monoclonal antibody, kappa light chain; also called mAb A0D9; AOD9) VH: QVQLKQSGPGLVQPSQSLSITCTVSGFSLSTYGVHWVRQFPGKGLEWLGVIWRGGNTNYNAAFMSRLTISKDNSKSQVFFKMNSLQAKDTAIYYCVRNQIYDGYYDYAMDYWGQGTSVTVSS VL: DIKMTQSPSSMYASLGERVTITCKASQDINTYLNWLQQKPGKSPKTLIYRANRLVDGVPSRFSGRGSGQDYSLTISSLEYEDVGIYYCLHYDAFPWTFGGGTKLEIK next.
Output: 92
